ASSAY SYSTEM: BRG-1 (Homo sapiens, UniProt P51532)
Construct: made in house; host or cells: High Five insect cells
Sequence (P51532 whole entry): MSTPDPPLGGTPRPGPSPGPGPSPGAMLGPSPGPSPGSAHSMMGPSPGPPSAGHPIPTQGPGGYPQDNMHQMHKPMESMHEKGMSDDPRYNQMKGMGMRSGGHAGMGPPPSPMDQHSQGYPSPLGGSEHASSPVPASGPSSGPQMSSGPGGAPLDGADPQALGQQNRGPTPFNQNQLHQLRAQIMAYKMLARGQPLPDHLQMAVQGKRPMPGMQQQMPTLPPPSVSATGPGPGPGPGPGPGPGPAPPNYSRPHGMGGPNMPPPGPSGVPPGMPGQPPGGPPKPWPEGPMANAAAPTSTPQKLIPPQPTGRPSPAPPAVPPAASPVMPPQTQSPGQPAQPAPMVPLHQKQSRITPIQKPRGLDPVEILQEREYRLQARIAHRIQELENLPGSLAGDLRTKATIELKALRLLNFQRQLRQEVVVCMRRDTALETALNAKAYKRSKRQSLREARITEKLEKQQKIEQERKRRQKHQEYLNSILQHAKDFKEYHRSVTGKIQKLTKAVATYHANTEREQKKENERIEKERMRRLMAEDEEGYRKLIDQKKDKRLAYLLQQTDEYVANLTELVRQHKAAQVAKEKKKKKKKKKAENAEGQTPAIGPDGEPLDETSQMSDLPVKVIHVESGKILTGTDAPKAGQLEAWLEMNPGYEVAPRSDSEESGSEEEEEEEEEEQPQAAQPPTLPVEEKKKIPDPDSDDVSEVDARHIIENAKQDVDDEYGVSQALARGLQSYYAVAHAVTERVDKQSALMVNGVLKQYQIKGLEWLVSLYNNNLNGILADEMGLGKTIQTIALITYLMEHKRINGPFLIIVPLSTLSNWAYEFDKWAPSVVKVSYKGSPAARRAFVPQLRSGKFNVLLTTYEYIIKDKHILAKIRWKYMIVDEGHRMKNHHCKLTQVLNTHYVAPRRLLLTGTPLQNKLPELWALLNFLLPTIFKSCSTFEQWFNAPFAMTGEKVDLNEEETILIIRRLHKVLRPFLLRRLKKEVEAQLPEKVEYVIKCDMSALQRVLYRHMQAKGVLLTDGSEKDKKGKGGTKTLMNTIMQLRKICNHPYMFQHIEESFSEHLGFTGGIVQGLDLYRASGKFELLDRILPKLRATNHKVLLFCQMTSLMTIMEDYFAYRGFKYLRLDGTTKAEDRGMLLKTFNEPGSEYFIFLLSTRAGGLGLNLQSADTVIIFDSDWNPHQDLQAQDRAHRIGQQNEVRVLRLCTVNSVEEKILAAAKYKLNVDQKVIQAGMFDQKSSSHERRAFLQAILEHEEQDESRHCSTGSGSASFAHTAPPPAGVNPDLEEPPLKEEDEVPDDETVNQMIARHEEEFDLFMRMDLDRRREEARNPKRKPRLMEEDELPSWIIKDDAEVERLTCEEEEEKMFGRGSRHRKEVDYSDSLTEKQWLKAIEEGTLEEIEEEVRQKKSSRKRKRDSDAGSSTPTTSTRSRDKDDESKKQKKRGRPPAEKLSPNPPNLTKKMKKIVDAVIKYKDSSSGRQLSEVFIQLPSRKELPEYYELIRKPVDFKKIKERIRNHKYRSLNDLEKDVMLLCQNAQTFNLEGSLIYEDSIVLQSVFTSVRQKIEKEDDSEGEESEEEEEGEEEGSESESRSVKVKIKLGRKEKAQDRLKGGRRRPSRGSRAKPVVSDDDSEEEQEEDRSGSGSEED
MEASUREMENT PROTOCOL: ATPase catalytic activity of BRG-1, ADP-Glo in vitro biochemical assay
COND: ATPase catalytic activity, ADP-Glo; 30 nM BRG-1, 400 μM ATP; read-out: BRG1 IC50
OBSERVABLE: log10(IC50) (log10 of the value in nM)

> print(dat)
                                    compound  experimental.result
 1  COCCN(CC(F)F)c1cccc(-c2ccc3cnc(CNC(=O)c4ccc5c(c4)S(=O)(=O)CCOC5)cc3n2)n1                 1.55
 2  C[C@@H]1CN(c2cccc(-c3ccc4cnc(CNC(=O)c5ccc6c(c5)S(=O)(=O)CC[C@@H](C5CC5)O6)cc4n3)n2)C[C@H](C)O1                 3.65
 3  C[C@@H]1CN(c2cccc(-c3ccc4cnc(CNC(=O)c5ccc6c(c5)S(=O)(=O)CCOC6(C)C)cc4n3)n2)C[C@H](C)O1                 3.59
 4  CCN(c1cccc(-c2ccc3cnc(CNC(=O)c4ccc5c(c4)S(=O)(=O)CCOC5)cc3n2)n1)[C@@H](C)COC                 2.07
 5  CO[C@H]1CN(c2cccc(-c3ccc4cnc(CNC(=O)c5ccc6c(c5)S(=O)(=O)CCOC6)cc4n3)n2)C[C@@H]1F                 1.93
 6  CN1CCCc2ccc(-c3ccc4cnc(CNC(=O)c5ccc6c(c5)S(=O)(=O)CCOC6)cc4n3)nc21                 1.96
 7  C[C@H]1COCc2ccc(C(=O)NCc3cc4nc(N5CCOc6cc(Cl)cnc65)ccc4cn3)cc2S1(=O)=O                 2.39
 8  CCOc1ccc2c(n1)N(c1ccc3cnc(CNC(=O)c4ccc5c(c4)S(=O)(=O)CCOC5)cc3n1)CCC2                 3.23
 9  COC[C@H]1COc2c(-c3ccc4cnc(CNC(=O)c5ccc6c(c5)S(=O)(=O)CCOC6)cc4n3)cccc2N1C                 2.95
10  CCOc1nc(-c2ccc3cnc(CNC(=O)c4ccc5c(c4)S(=O)(=O)CCOC5)cc3n2)ccc1Cl                 2.96
11  C[C@@H]1CN(c2cccc(-c3ccc4cnc(CNC(=O)c5ccc6c(c5)S(=O)(=O)[C@H](C)C6)cc4n3)n2)C[C@H](C)O1                 2.08
12  Cc1cc2c(nc1C)N(c1ccc3cnc(CNC(=O)c4ccc5c(c4)S(=O)(=O)CCOC5)cc3n1)CCC2                 2.08
13  O=C(NCc1cc2nc(-c3cccc(C4CC4)n3)ccc2nn1)c1cc(F)c2c(c1)S(=O)(=O)CCOC2                 2.49
14  O=C(NCc1cc2nc(N3CCOc4cc(Cl)cnc43)ccc2cn1)c1ccc2c(c1)S(=O)(=O)CCOC2                 2.23
15  O=C(NCc1cc2nc(N3CCCc4cc(C5CC5)cnc43)ccc2cn1)c1ccc2c(c1)S(=O)(=O)CCOC2                 1.94
16  CO[C@H](C)c1cnc2c(c1)CCCN2c1ccc2cnc(CNC(=O)c3ccc4c(c3)S(=O)(=O)CCOC4)cc2n1                 2.98
17  O=C(NCc1cc2nc(N3CCCc4cc(Cl)cnc43)ccc2cn1)c1ccc2c(c1)S(=O)(=O)CCOC2                 2.61
18  CCN(c1cccc(-c2ccc3cnc(CNC(=O)c4cc(F)c5c(c4)S(=O)(=O)CCOC5)cc3n2)n1)C1CC1                 2.34
19  CCOc1cccc(-c2ccc3cnc(CNC(=O)c4cc(F)c5c(c4)S(=O)(=O)[C@@H](C)COC5)cc3n2)n1                 2.77
20  O=C(NCc1cc2nc(N3CCCc4c(C(F)F)ccnc43)ccc2cn1)c1ccc2c(c1)S(=O)(=O)CCOC2                 2.63
21  C[C@H]1COCc2ccc(C(=O)NCc3cc4nc(-c5cccc(C6CC6)n5)ccc4cn3)cc2S1(=O)=O                 2.62
22  C[C@@H]1CN(c2nccc(-c3ccc4cnc(CNC(=O)c5ccc6c(c5)S(=O)(=O)[C@@H](C)COC6)cc4n3)c2F)C[C@H](C)O1                 3.05
23  CC1CN(c2cccc(-c3ccc4cnc(CNC(=O)c5ccc6c(c5)S(=O)(=O)C(C)CN6C)cc4n3)n2)CC(C)O1 (stereo not drawn) [Compound 567]                 2.73
24  CN1CCN(c2ccc3cnc(CNC(=O)c4ccc5c(c4)S(=O)(=O)CCOC5)cc3n2)c2ccccc21                 2.34
25  CCOCc1ccc2c(n1)N(c1ccc3cnc(CNC(=O)c4ccc5c(c4)S(=O)(=O)CCOC5)cc3n1)CCC2                 2.94
26  COCCc1ccc2c(n1)N(c1ccc3cnc(CNC(=O)c4ccc5c(c4)S(=O)(=O)CCOC5)cc3n1)CCC2                 3.23
27  C[C@@H]1CN(c2cccc(-c3ccc4cnc(CNC(=O)c5cc(F)c6c(c5)S(=O)(=O)CCO[C@H]6C)cc4n3)n2)C[C@H](C)O1                 1.79

The reported measurements were obtained from patent US20230416248A1.
